# target-system: PGR (gene 5241) (UniProt P06401)
# Sequence (P06401 whole entry, looked up): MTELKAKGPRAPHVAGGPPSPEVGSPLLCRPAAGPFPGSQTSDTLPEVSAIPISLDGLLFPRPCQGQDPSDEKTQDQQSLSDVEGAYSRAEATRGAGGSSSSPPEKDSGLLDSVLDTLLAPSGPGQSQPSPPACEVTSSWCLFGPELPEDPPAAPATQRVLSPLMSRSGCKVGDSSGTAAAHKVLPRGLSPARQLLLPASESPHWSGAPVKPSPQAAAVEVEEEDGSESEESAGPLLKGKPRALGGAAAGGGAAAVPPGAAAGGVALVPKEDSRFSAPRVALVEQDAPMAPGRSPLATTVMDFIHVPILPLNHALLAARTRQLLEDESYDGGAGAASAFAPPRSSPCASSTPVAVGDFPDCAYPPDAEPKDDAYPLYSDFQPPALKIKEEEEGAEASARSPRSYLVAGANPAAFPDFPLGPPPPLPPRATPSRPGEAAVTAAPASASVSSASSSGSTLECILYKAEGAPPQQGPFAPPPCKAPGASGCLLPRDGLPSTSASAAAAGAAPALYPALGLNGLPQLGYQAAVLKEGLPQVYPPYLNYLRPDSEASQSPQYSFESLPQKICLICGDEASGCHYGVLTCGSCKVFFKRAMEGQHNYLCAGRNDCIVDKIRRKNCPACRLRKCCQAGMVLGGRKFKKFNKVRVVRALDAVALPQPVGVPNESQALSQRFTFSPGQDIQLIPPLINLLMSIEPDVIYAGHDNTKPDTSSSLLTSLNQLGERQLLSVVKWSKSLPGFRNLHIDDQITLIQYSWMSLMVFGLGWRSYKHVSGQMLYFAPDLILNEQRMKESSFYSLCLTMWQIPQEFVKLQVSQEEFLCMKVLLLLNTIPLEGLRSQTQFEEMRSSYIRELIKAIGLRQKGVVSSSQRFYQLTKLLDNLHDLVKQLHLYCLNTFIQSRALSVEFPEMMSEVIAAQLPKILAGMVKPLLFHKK
# assay: TOX21_PR_BLA_Followup_Agonist_ratio: Tox21 HEK293 Progesterone Receptor (PR) Agonism Beta-lactamase Follow-Up Assay, Ratio (AID 2283933)
Results filed as inconclusive are left out. Active and inactive are the calls of the source. The calls were made as follows: active = hit-call score of the fitted dose curve at least 0.9, where 1 is the maximum; inconclusive = response in the unintended direction; inactive = score below 0.9.
Answer with one of the outcomes active, inactive

// below: answered molecules
- CCCC(=O)OCOC(=O)C1=C(C)NC(C)=C(C(=O)OC)C1c1cccc(Cl)c1Cl (configuration not stated): inactive
- CC1(C)OC(=O)Nc2ccc(Br)cc21: inactive
- CC(=O)O[C@@H]1CC2C3CCc4cc(OC(=O)c5ccccc5)ccc4C3CCC2(C)[C@H]1OC(C)=O (some centres not stated): inactive

**Q:** // outcome(item) with item = CCOC(=O)C1=C(C)NC(C)=C(C(=O)OC)C1c1cccc(Cl)c1Cl (configuration not stated)
**A:** inactive

**Q:** Let us now turn to C[C@]12CCC(=O)C=C1CC[C@@H]1[C@@H]2[C@@H](O)C[C@@]2(C)[C@H]1CC[C@]2(O)C(=O)CO
**A:** inactive

**Q:** Let us now turn to CN1CC[C@H](c2c(O)cc(O)c3c(=O)cc(-c4ccccc4Cl)oc23)[C@H](O)C1
**A:** inactive

* * *

# assay: CCTE_Shafer_MEA_dev_mutual_information_norm: CCTE's Neural Network Formation Assay for Mutual Information Normalization, Shafer Lab (AID 2284091)
Activity calls are given as the source filed them. The calls were made as follows: active = hit-call score of the fitted dose curve at least 0.9, where 1 is the maximum; inactive = score below 0.9.
Answer with one of the outcomes active, inactive

// below: answered molecules
• [O]=[V]([OH])([OH])[OH] = active
• C[C@@H]1CCO[C@H]2Cn3cc(C(=O)NCc4ccc(F)cc4F)c(=O)c(O)c3C(=O)N12 = active
• c1ccc2c(c1)ccc1c3ccccc3ccc21 = inactive
• Cc1[nH]n(C)c(=O)c1C(=O)c1ccc(C(F)(F)F)cc1S(C)(=O)=O = inactive
• CCCCCC(C)(CC)C(=O)NC (configuration not stated) = inactive

**Q:** // outcome(item) with item = C[C@@H]1CC[C@@H](C(C)(C)O)[C@H](O)C1
**A:** inactive

**Q:** Let us now turn to CC(C)O
**A:** inactive

**Q:** Let us now turn to CC(C)c1nn(C(=O)NC(C)(C)C)c(=O)n1N
**A:** inactive

* * *

# Test system: Thyroperoxidase (TPO), gene 54314
# assay: CCTE_Simmons_AUR_rTPO: CCTE's Amplex UltraRed Assay for Thyroperoxidase (TPO) Inhibition, Simmons Lab (AID 2283662)
The source made the active and inactive calls. How the source made its calls: active means hit-call score of the fitted dose curve at least 0.9, where 1 is the maximum; inconclusive means response in the unintended direction; inactive means score below 0.9.
Answer with one of the outcomes active, inactive

- O=C(c1ccccc1)c1ccc(O)cc1: inactive
- O=C(NO)c1ccccc1O: active
- S=c1[nH]c2cc(Cl)ccc2s1: active

Attention now turns to another entry.
**Q:** // outcome(item) with item = OC(c1ccccc1)c1ccccc1
**A:** inactive

* * *

# assay: IUF_NPC1_viability_72hr: Viability Assessment at 72 hours in the Leibniz Research Institute for Environmental Medicine (IUF) Neural Progenitor Cell Proliferation Assay (NPC1) (AID 2284209)
Activity calls are given as the source filed them. The calls were made as follows: active = hit-call score of the fitted dose curve at least 0.9, where 1 is the maximum; inactive = score below 0.9.
Answer with one of the outcomes 1.0 for active, 0.0 for inactive

// below: answered molecules
- CCCCOCCOP(=O)(O)OCCOCCCC: 1.0
- CC(CNC(=S)[S-])NC(=S)[S-].[Zn+2] (centres undefined): 0.0
- BrC1CC(Br)CC(Br)CC(Br)CC(Br)CC(Br)C1 (centres undefined): 0.0
- CN(C)CCCn1cc(C2=C(c3c[nH]c4ccccc34)C(=O)NC2=O)c2ccccc21: 0.0
- CCc1ccccc1: 0.0

**Q:** // outcome(item) with item = CC(C)c1nn(C(=O)NC(C)(C)C)c(=O)n1N
**A:** 0.0

**Q:** Let us now turn to CCCCCC(C)(CC)C(=O)NC (centres undefined)
**A:** 0.0

**Q:** Let us now turn to CCCCCC=C(C)C(CC)CCO (centres undefined)
**A:** 0.0

**Q:** Let us now turn to F
**A:** 1.0

* * *

# target-system: Luciferin 4-monooxygenase (Photinus pyralis) (UniProt P08659)
# Sequence (P08659 whole entry, looked up): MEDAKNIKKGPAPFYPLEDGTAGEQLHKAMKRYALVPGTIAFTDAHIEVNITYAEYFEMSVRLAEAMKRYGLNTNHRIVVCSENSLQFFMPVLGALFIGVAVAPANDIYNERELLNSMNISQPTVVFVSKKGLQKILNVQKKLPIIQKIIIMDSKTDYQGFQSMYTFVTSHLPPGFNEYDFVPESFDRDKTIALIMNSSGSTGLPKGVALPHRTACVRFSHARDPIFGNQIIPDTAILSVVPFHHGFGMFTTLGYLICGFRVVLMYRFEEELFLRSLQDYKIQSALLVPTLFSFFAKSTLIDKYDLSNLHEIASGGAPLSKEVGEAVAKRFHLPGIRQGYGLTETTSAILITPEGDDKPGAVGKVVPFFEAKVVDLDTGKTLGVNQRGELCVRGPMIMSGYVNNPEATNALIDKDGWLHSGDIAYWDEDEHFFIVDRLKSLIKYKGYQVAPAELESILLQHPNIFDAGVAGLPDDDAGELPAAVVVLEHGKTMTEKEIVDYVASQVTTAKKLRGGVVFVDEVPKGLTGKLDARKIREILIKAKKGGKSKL
# assay: CCTE_Simmons_QuantiLum_inhib_2: CCTE's Firefly Luciferase Inhibition Assay, Simmons Lab (AID 2283767)
Inconclusive results are not listed. Active and inactive are the calls of the source. The calls were made as follows: active = hit-call score of the fitted dose curve at least 0.9, where 1 is the maximum; inconclusive = response in the unintended direction; inactive = score below 0.9.
Answer with one of the outcomes 1 (active), 0 (inactive)

// below: answered molecules
* OCc1ncccc1O | 0
* Cn1c(=S)[nH]c2ccccc21 | 0

**Q:** // outcome(item) with item = CN(C)C(=S)N(C)C
**A:** 1

**Q:** Let us now turn to COc1c[nH]ccc1=O
**A:** 0

**Q:** Let us now turn to CCOC(=O)c1cccc(O)c1
**A:** 0

**Q:** Let us now turn to C=CC1CNC(=S)O1 (centres undefined)
**A:** 0

**Q:** Let us now turn to OC(c1ccccc1)c1ccccc1
**A:** 0

**Q:** Let us now turn to S=c1[nH]c2cc(Cl)ccc2s1
**A:** 0

**Q:** Let us now turn to O=C(c1ccccc1)c1ccc(O)cc1
**A:** 0

* * *

# assay: CCTE_Shafer_MEA_dev_per_network_spike_spike_percent: CCTE's Neural Network Formation Assay for Percent of Spikes in a Network Spike, Shafer Lab (AID 2284054)
Activity calls are given as the source filed them. The calls were made as follows: active = hit-call score of the fitted dose curve at least 0.9, where 1 is the maximum; inactive = score below 0.9.
Answer with one of the outcomes active, inactive

// below: answered compounds
- Brc1cc(Br)c(Oc2cc(Br)c(Br)cc2Br)cc1Br: inactive
- BrC1CC(Br)CC(Br)CC(Br)CC(Br)CC(Br)C1 (stereo unspecified): active
- c1cc2c3c(c1)ccc1cccc(c13)C2: inactive
- F: inactive
- CC(CNC(=S)[S-])NC(=S)[S-].[Zn+2] (stereo unspecified): active
- [O]=[V]([OH])([OH])[OH]: active
- Cc1[nH]n(C)c(=O)c1C(=O)c1ccc(C(F)(F)F)cc1S(C)(=O)=O: inactive
- CC(C)O: inactive
- c1ccc2c(c1)ccc1c3ccccc3ccc21: inactive
- CC(C)c1nn(C(=O)NC(C)(C)C)c(=O)n1N: inactive

**Q:** // outcome(item) with item = CCc1ccccc1
**A:** inactive

* * *

# assay: TOX21_TR_RXR_BLA_Antagonist_Followup_viability: Viability Assessment in the Tox21 Thyroid Hormone Receptor beta Retinoid X Receptor alpha (RXRa) Antagonism Beta-lactamase (BLA) Follow-Up Assay (AID 2283979)
# Description: GeneBLAzer RXRa-UAS-bla HEK293T assay (RXRa-bla) (ThermoFisherScientific Catalog No. K1697) was run in qHTS 1536 well format as a secondary assay for specificity of response in the TOX21_TR_GH3_LUC_Agonist assay.TOX21_TR_RXR_BLA_Antagonist_Followup_viability is a component of the TOX21_TR_RXR_BLA_Antagonist_Followup assay. […]
Records with an inconclusive call do not appear. Activity calls are given as the source filed them. How the source made its calls: active means hit-call score of the fitted dose curve at least 0.9, where 1 is the maximum; inconclusive means response in the unintended direction; inactive means score below 0.9.
observable: AC50

Previously resolved entries follow.
* Cc1ccc(Nc2nccc(N(C)c3ccc4c(C)n(C)nc4c3)n2)cc1S(N)(=O)=O | inactive
* COC(=O)Nc1nc2ccc(S(=O)c3ccccc3)cc2[nH]1 (stereo not given) | inactive
* CC(=O)O[C@@]12CO[C@@H]1C[C@H](O)[C@@]1(C)C(=O)[C@H](O)C3=C(C)[C@@H](OC(=O)[C@H](O)[C@@H](NC(=O)OC(C)(C)C)c4ccccc4)C[C@@](O)([C@@H](OC(=O)c4ccccc4)[C@H]21)C3(C)C | inactive
* COc1cc(NCc2ccc3nc(N)nc(N)c3c2C)cc(OC)c1OC | 1.77 µM (active)

**Q:** Form field: reported AC50 of C#C[C@]1(O)CC[C@H]2[C@@H]3CCC4=C(CCC(=O)C4)[C@H]3CC[C@@]21C
**A:** inactive

* * *

# assay: CCTE_Simmons_CellTiterGLO_HEK293T: Viability Assessment in CCTE's Assays for Thyroperoxidase (TPO) Inhibition, Simmons Lab (AID 2283665)
Inconclusive results are not listed. Activity calls are given as the source filed them. Rule for the calls: active = hit-call score of the fitted dose curve at least 0.9, where 1 is the maximum; inconclusive = response in the unintended direction; inactive = score below 0.9.
Answer with one of the outcomes active, inactive

// below: answered molecules
• OCc1ncccc1O = inactive
• Cc1ccc(C=C2C(=O)C3(C)CCC2C3(C)C)cc1 (stereo not given) = active
• O=C1CC(c2ccc(O)cc2)Oc2cc(O)cc(O)c21 (stereo not given) = inactive
• O=C(c1ccccc1)c1ccc(O)cc1 = inactive

Attention now turns to another entry.
**Q:** // outcome(item) with item = O=c1cccc(O)[nH]1
**A:** inactive

* * *

# assay: CCTE_Mundy_HCI_Cortical_Synap_Neur_Matur_NeuronCount: CCTE's Synaptogenesis and Neurite Maturation Assay in rat cortical cells for Neuron Count, Mundy Lab (AID 2284242)
Inconclusive results are not listed. Active and inactive are the calls of the source. The calls were made as follows: active = hit-call score of the fitted dose curve at least 0.9, where 1 is the maximum; inconclusive = response in the unintended direction; inactive = score below 0.9.
Answer with one of the outcomes true (1) = active, false (0) = inactive

* [O]=[V]([OH])([OH])[OH] | true (1)
* CC(=O)N[C@@H](CC(=O)O)C(=O)O | false (0)

**Q:** // outcome(item) with item = Cc1[nH]n(C)c(=O)c1C(=O)c1ccc(C(F)(F)F)cc1S(C)(=O)=O
**A:** false (0)

**Q:** Let us now turn to C[C@@H]1CCO[C@H]2Cn3cc(C(=O)NCc4ccc(F)cc4F)c(=O)c(O)c3C(=O)N12
**A:** false (0)

**Q:** Let us now turn to CN(C)CCCn1cc(C2=C(c3c[nH]c4ccccc34)C(=O)NC2=O)c2ccccc21
**A:** false (0)

**Q:** Let us now turn to CC(CNC(=S)[S-])NC(=S)[S-].[Zn+2] (stereo unspecified)
**A:** true (1)
